Tested on: SF-268 CNS
METHOD_NOTES: NCI tumour cell line growth inhibition, 48 h
QUANTITY: TGI

CC1=C(c2ccccc2)NC(=S)C(C)C(c2ccccc2)=N1 (stereo not given): > 100 µM
CC(C)=CC(Cc1ccccc1)S(=O)(=O)c1nc2ccccc2s1 (stereo not given): 36.5 µM
CC(C)=CCC[C@](C)(O)[C@H]1CC[C@]2(C)[C@@H]1CC[C@@H]1[C@@]3(C)CC/C(=N/O)C(C)(C)[C@@H]3CC[C@]12C: > 100 µM

For the 2 compounds below, give their TGI values.
1. Nc1nnnn1CCO
2. O=c1c2cc3c(=O)n4c(cc(-c5ccccc5)c5cc(Cl)ccc54)nc3cc2nc2cc(-c3ccccc3)c3cc(Cl)ccc3n12

> 100 µM
> 100 µM
